biological target: glucokinase (GK), residues 12-465 of the human enzyme (Homo sapiens, UniProt P35557); construct: I.D. No. 1 corresponds to residues 12-465 of glucokinase; test: Enzymatic glucokinase activity assay (KinaseGlo luminescence, ATP consumption); conditions: GK activation; 5 μM ATP, 5 mM Glucose; Kact = concentration giving 50% of the maximal increase in GK activity; read-out: pKact
RECORDED METRIC: EC50

EC50 lookup needed for N#Cc1cccc(S(=O)(=O)N2CCN([C@@H](CC3CCCCC3)C(=O)Nc3nccs3)C(=O)C2)c1 , thanks.
794 to 1260 nM

Can you check O=C(Nc1nccs1)[C@H](CC1CCCCC1)N1CCN(S(=O)(=O)CC(F)(F)F)CC1=O next?
1580 to 2510 nM

Can you check O=C(Nc1nccs1)[C@H](CC1CCCCC1)N1CCN(C(=S)Nc2cccc(Cl)c2)CC1=O next?
1580 to 2510 nM

Can you check Cc1ccc([N+](=O)[O-])cc1S(=O)(=O)N1CCN([C@@H](CC2CCCCC2)C(=O)Nc2nccs2)C(=O)C1 next?
≤ 631 nM

Can you check O=C(Nc1nccs1)[C@H](CC1CCCCC1)N1CCN(S(=O)(=O)c2cc(Cl)cc(Cl)c2)CC1=O next?
≤ 631 nM

Can you check O=C(Nc1nccs1)[C@H](CC1CCCCC1)N1CCN(S(=O)(=O)c2ccc(-c3ccno3)s2)CC1=O next?
1580 to 2510 nM

Can you check COc1cc(C)c(S(=O)(=O)N2CCN([C@@H](CC3CCCCC3)C(=O)Nc3nccs3)C(=O)C2)c(C)c1C next?
794 to 1260 nM

Can you check Cc1cc(S(=O)(=O)N2CCN([C@@H](CC3CCCCC3)C(=O)Nc3nccs3)C(=O)C2)c(C(F)(F)F)o1 next?
1580 to 2510 nM

Can you check O=C(Nc1nccs1)[C@H](CC1CCCCC1)N1CCN(S(=O)(=O)c2cccc(Cl)c2)CC1=O next?
≤ 631 nM

Can you check O=C(Nc1nccs1)[C@H](CC1CCCCC1)N1CCN(S(=O)(=O)N2CCCC2)CC1=O next?
≤ 631 nM

Can you check N#Cc1ccc(S(=O)(=O)N2CCN([C@@H](CC3CCCCC3)C(=O)Nc3nccs3)C(=O)C2)c(Cl)c1 next?
1580 to 2510 nM

----------
Biological target: glucokinase (GK), residues 12-465 of the human enzyme (Homo sapiens, UniProt P35557)
Construct: I.D. No. 1 corresponds to residues 12-465 of glucokinase
Sequence (P35557 with tags, fused parts or gaps isoform P35557-2): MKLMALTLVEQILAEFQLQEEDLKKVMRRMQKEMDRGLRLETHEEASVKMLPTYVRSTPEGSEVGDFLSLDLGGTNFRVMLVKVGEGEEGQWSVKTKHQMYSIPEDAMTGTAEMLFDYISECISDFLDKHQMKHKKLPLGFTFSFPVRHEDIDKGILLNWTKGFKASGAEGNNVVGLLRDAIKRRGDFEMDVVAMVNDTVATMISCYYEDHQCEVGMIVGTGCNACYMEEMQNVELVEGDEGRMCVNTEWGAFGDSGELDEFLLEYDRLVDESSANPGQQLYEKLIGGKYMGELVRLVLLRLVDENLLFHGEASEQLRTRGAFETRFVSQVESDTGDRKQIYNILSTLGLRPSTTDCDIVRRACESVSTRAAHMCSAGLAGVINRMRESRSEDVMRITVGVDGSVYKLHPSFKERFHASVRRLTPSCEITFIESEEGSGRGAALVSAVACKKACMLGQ
Assay: Enzymatic glucokinase activity assay (KinaseGlo luminescence, ATP consumption)
Conditions: GK activation; 5 μM ATP, 5 mM Glucose; Kact = concentration giving 50% of the maximal increase in GK activity; read-out: pKact
RECORDED METRIC: EC50

EC50 lookup needed for O=C(Nc1nccs1)[C@H](CC1CCCCC1)N1CCN(C(=S)NCc2cccc(F)c2)CC1=O , thanks.
794 to 1260 nM

Can you check O=C(Nc1ncc(F)s1)C(CC1CCOCC1)N1CCN(S(=O)(=O)c2cccc(F)c2)CC1=O (stereo not drawn) next?
794 to 1260 nM

Can you check COC(=O)c1cc(C)c(S(=O)(=O)N2CCN([C@@H](CC3CCCCC3)C(=O)Nc3nccs3)C(=O)C2)s1 next?
1580 to 2510 nM

----------
molecular target: glucokinase (GK), residues 12-465 of the human enzyme (Homo sapiens, UniProt P35557); construct: I.D. No. 1 corresponds to residues 12-465 of glucokinase; made in house; host or cells: E. coli DH10b-Tlr; experiment: Enzymatic glucokinase activity assay (KinaseGlo luminescence, ATP consumption); format: biochemical; conditions: calculated maximal gain in GK enzyme activity at a saturating concentration of the compound; 5 μM ATP, 5 mM Glucose; read-out: % ACTmax
Record form. Attribute: Emax. Fill in for each entry.

# value lookup — system glucokinase (GK), residues 12-465 of the human enzyme (Homo sapiens, UniProt P35557), readout Emax, item O=C(Nc1nccs1)[C@H](CC1CCCCC1)N1CCN(C(=S)Nc2ccccc2OC(F)(F)F)CC1=O
≥ 119%

Can you check CC(C)S(=O)(=O)N1CCN([C@@H](CC2CCCCC2)C(=O)Nc2nccs2)C(=O)C1 next?
≥ 119%

Can you check O=C(Nc1nccs1)[C@H](CC1CCCCC1)N1CCN(S(=O)(=O)c2cc(Cl)ccc2F)CC1=O next?
≥ 119%

Can you check CC(=O)Nc1nc(C)c(S(=O)(=O)N2CCN([C@@H](CC3CCCCC3)C(=O)Nc3nccs3)C(=O)C2)s1 next?
97.1 to 107%

Can you check Cc1ccc(F)cc1S(=O)(=O)N1CCN([C@@H](CC2CCCCC2)C(=O)Nc2nccs2)C(=O)C1 next?
108 to 119%

Can you check Cc1cc(S(=O)(=O)N2CCN([C@@H](CC3CCCCC3)C(=O)Nc3nccs3)C(=O)C2)c(Cl)cc1Cl next?
≤ 74%

Can you check O=C(Nc1nccs1)[C@H](CC1CCCCC1)N1CCN(S(=O)(=O)c2ccccc2C(F)(F)F)CC1=O next?
108 to 119%

Can you check COc1ccc2nc(NC(=O)C(CC3CCOCC3)N3CCN(S(=O)(=O)C4CCCC4)CC3=O)sc2n1 (centres unmarked) next?
108 to 119%

----------
biological target: glucokinase (GK), residues 12-465 of the human enzyme (Homo sapiens); construct: I.D. No. 1 corresponds to residues 12-465 of glucokinase; made in house; host or cells: E. coli DH10b-Tlr; assay: Enzymatic glucokinase activity assay (KinaseGlo luminescence, ATP consumption); format: biochemical; settings: calculated maximal gain in GK enzyme activity at a saturating concentration of the compound; 5 μM ATP, 5 mM Glucose; read-out: % ACTmax
Record form. Attribute: Emax. Fill in for each entry.

Emax lookup needed for O=C(Nc1nccs1)[C@H](CC1CCCCC1)N1CCN(S(=O)(=O)c2ccc(Cl)cc2)CC1=O , thanks.
74.1 to 97%

Can you check O=C(Nc1nccs1)[C@H](CC1CCCCC1)N1CCN(S(=O)(=O)c2cc(F)cc(F)c2)CC1=O next?
97.1 to 107%

Can you check O=C(Nc1nccs1)[C@H](CC1CCCCC1)N1CCN(S(=O)(=O)c2ccc3c(c2)OCCO3)CC1=O next?
74.1 to 97%

Can you check O=C(Nc1nccs1)[C@H](CC1CCCCC1)N1CCN(C(=O)Nc2ccc3sccc3c2)CC1=O next?
≤ 74%

Can you check O=C(Nc1nccs1)[C@H](CC1CCCCC1)N1CCN(S(=O)(=O)c2cccc3cccnc23)CC1=O next?
108 to 119%

Can you check CC(C)C[C@@H](C(=O)Nc1ncc(F)s1)N1CCN(S(=O)(=O)C2CC2)CC1=O next?
≥ 119%

Can you check O=C(Nc1nccs1)[C@H](CC1CCCCC1)N1CCN(C(=S)Nc2ccc(C(F)(F)F)cc2)CC1=O next?
≤ 74%

Can you check O=C(Nc1nccs1)[C@H](CC1CCCCC1)N1CCN(S(=O)(=O)c2cccc(F)c2)CC1=O next?
108 to 119%

Can you check NC(=O)Nc1ccc(S(=O)(=O)N2CCN([C@@H](CC3CCCCC3)C(=O)Nc3nccs3)C(=O)C2)cc1 next?
97.1 to 107%

Can you check O=C(Nc1nccs1)[C@H](CC1CCCCC1)N1CCN(C(=S)NCc2ccc(F)cc2)CC1=O next?
108 to 119%

Can you check Cc1cc(S(=O)(=O)N2CCN([C@@H](CC3CCCCC3)C(=O)Nc3nccs3)C(=O)C2)c(C(F)(F)F)o1 next?
108 to 119%

Can you check Cc1cc(S(=O)(=O)N2CCN([C@@H](CC3CCCCC3)C(=O)Nc3nccs3)C(=O)C2)c(C)cc1Cl next?
≤ 74%

Can you check O=C(c1cccc(S(=O)(=O)N2CCN([C@@H](CC3CCCCC3)C(=O)Nc3nccs3)C(=O)C2)c1)c1ccccn1 next?
74.1 to 97%
